B1: Tyrosine-protein kinase Lck, residues 63 to 120; numbered along this chain, P06239 (parent)
chain: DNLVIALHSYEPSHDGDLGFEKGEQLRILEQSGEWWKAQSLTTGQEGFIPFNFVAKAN

Variants of: B1
Assay: abundance fitness (aPCA) (normalised: wild type 0, dead -1); higher = more abundant; growth selection in yeast, the domain comes from the species named
Details: Homo sapiens
# binarize abundance fitness: threshold -0.2 inclusive, high side fulfilled, low side not fulfilled

Study these solved cases before continuing.
{"columns": ["mutation-name", "class-label"],
 "data": [
  ["G16P", "not fulfilled"],
  ["E11V", "fulfilled"],
  ["L29D", "not fulfilled"]
]}

Ask: Given the entry `D17L` , answer whether its abundance fitness meets or surpasses -0.2.
Reply: fulfilled

Ask: Check if abundance fitness >= -0.2 (inclusive). Item: `G44W`
Reply: not fulfilled

Ask: Does `G47M` have a reported abundance fitness of at least -0.2?
Reply: not fulfilled
